Counter-ions that a name gives are not always drawn.
metric name: melting point

- molecule: "CNC(=O)O[C@H]1CC[C@H](Nc2ncc3c(n2)NC(=O)N(c2ccccc2Cl)C3)CC1 (as salt: hydrochloride) [Compound 4-22]"
  melting point: "269 to 271 °C"
- molecule: "Cc1ccccc1N1Cc2cnc(N[C@H](C)[C@@H](O)CO)nc2N(C)C1=O [Compound 3-23]"
  melting point: "119.8 to 121.8 °C"
- molecule: "Cc1ccccc1N1Cc2cnc(NC3CCN(CCC#N)CC3)nc2N(C)C1=O (as salt: hydrochloride) [Compound 2-15]"
  melting point: "195 to 208.5 °C"

Turning to the following molecule.
Please give the measured melting point for this molecule: CN1C(=O)N(c2ccccc2Cl)Cc2cnc(NCC(C)(C)CN)nc21 [Compound 3-1] 183 to 235 °C

----------
Counter-ions that a name gives are not always drawn.
Catalogue of compounds with associated melting point

Example entries begin here.
- compound: "CC(=O)O[C@H]1CC[C@H](Nc2ncc3c(n2)NC(=O)N(c2ccccc2Cl)C3)CC1 (as salt: hydrochloride)"
  experimental value: "> 300 °C"
- compound: "Cc1ccccc1N1Cc2cnc(N[C@H](C)[C@@H](O)CO)nc2NC1=O (as salt: hydrochloride)"
  experimental value: "161 to 172 °C"
- compound: "O=C1N(c2ccccc2Cl)Cc2cnc(N[C@H]3CC[C@H](O)CC3)nc2N1CC(F)(F)F"
  experimental value: "130 to 133.5 °C"
- compound: "CS(=O)(=O)N[C@H]1CC[C@H](Nc2ncc3c(n2)NC(=O)N(c2ccccc2Cl)C3)CC1"
  experimental value: "292.8 to 293.2 °C"
- compound: "COC(=O)O[C@H]1CC[C@H](Nc2ncc3c(n2)NC(=O)N(c2ccccc2Cl)C3)CC1 (as salt: hydrochloride)"
  experimental value: "> 260 °C"
- compound: "O=C1N(c2ccccc2Cl)Cc2cnc(N[C@H]3CC[C@H](O)CC3)nc2N1Cc1ccccc1 (as salt: hydrochloride)"
  experimental value: "218.5 to 221 °C"

Kindly consider the entry below.
Record request: melting point value, item O=C1Nc2nc(NC3CCC4(CC3)OCCO4)ncc2CN1c1ccccc1Cl (as salt: hydrochloride) 173.6 to 189.7 °C

----------
melting point values, listed per item
Structures can show the parent of a compound that is named as a salt.

Recorded melting point of Cc1ccccc1N1Cc2cnc(NC3CCN(Cc4ccccc4)CC3)nc2N(C)C1=O (as salt: hydrochloride) , please. 253 to 253.9 °C

----------
Counter-ions that a name gives are not always drawn.
Recorded measurements of melting point, one per entry

- molecule: "O=CO[C@H]1CC[C@H](Nc2ncc3c(n2)NC(=O)N(c2ccccc2Cl)C3)CC1"
  experimental value: "> 300 °C"
- molecule: "CN1C(=O)N(c2ccccc2Cl)Cc2cnc(NC3CCC(=O)CC3)nc21 (as salt: hydrochloride)"
  experimental value: "233.4 to 236.3 °C"
- molecule: "CN1C(=O)N(c2ccccc2Cl)Cc2cnc(NC(C)(C)C(O)CO)nc21 (stereo not shown) (as salt: hydrochloride)"
  experimental value: "203.1 to 204.1 °C"
- molecule: "Cc1ccccc1N1Cc2cnc(NC3CCN(C[C@@H](O)CO)CC3)nc2N(C)C1=O (as salt: hydrochloride)"
  experimental value: "195 to 208 °C"
- molecule: "CCOCC(COCC)N1C(=O)N(c2ccccc2Cl)Cc2cnc(N[C@H](C)CO)nc21 (as salt: hydrochloride)"
  experimental value: "169.7 to 175.1 °C"

If you can, please state the reported melting point value of NC(=O)CN1CCC(CNc2ncc3c(n2)NC(=O)N(c2ccccc2Cl)C3)CC1 (as salt: hydrochloride) . 229.9 to 232.2 °C

Look up melting point: O=C(O)CN1CCC(CNc2ncc3c(n2)NC(=O)N(c2ccccc2Cl)C3)CC1 (as salt: hydrochloride) 215 to 219 °C
